src = patent US11641858B2

I'd be grateful if you could share measured inhibition of growth at 20 ppm for these entries.
Tested on: Pythium ultimum
Experiment: Amended agar assay (potato dextrose agar), reduction in colony growth
Assay type: cell-based
Conditions: Globisporangium ultimum; Pythium ultimum; primary screen at 20 ppm; read-out: % control at 20 ppm

1) Cc1cc(-n2c(OCc3cccc(NC(=O)C(F)(F)Oc4ccccc4)n3)nc3ccccc32)sn1    < 50%
2) O=C(Nc1cccc(COc2nc3ccccc3n2-c2ncccc2Br)n1)C(F)(F)Oc1ccccc1    < 50%
3) CC(=O)Nc1cccc(COc2nc3ccccc3n2-c2nnnn2C)n1    45 to 55%

Let us examine a further case.
Please tell me: inhibition of growth at 20 ppm of Cc1noc(-n2c(OCc3cccc(NC(=O)C(F)(F)Oc4ccccc4)n3)nc3ccccc32)c1C , system Pythium ultimum?
50 to 99%

----------
System: Pythium ultimum
Experiment: Amended agar assay (potato dextrose agar), reduction in colony growth
Format: cell-based
Details: Globisporangium ultimum; Pythium ultimum; primary screen at 20 ppm; read-out: % control at 20 ppm
I'd be grateful if you could share measured inhibition of growth at 20 ppm for these entries.

1. Cn1nccc1-n1c(OCc2cccc(NC(=O)C(F)(F)Oc3ccccc3)n2)nc2ccccc21    50 to 99%
2. O=C(Nc1cccc(COc2nc3ccccc3n2-c2ncncc2Cl)n1)C(F)(F)Oc1ccccc1    > 99%
3. Cc1cccnc1-n1c(OCc2cccc(NC(=O)C(F)(F)Oc3ccccc3)n2)nc2ncccc21    50 to 99%
4. Cn1nnnc1-n1c(OCc2cccc(NC(=O)C(F)(F)Oc3ccccc3)n2)nc2ccc(F)cc21    > 99%

Hi, could you look up inhibition of growth at 20 ppm for each item in my list?
1. Cc1cccnc1-n1c(OCc2cccc(NC(=O)C(F)(F)Oc3ccccc3)n2)nc2ccccc21
2. Cn1nnnc1C(=NOCc1cccc(NC(=O)C(F)(F)Oc2ccccc2)n1)c1ccccc1 [A, reference compound]
3. CCOC(=O)Nc1cccc(COc2nc3ccccc3n2-c2nnnn2C)n1
4. Cn1nnnc1-n1c(OCc2cccc(NC(=O)OC(C)(C)C)n2)nc2ccccc21
5. Cn1nnnc1-n1c(OCc2cccc(NC(=O)C(F)(F)Oc3ccccc3)n2)nc2ccccc21

["50 to 99%", "> 99%", "> 99%", "> 99%", "> 99%"]
